Recorded values, source patent US11203577B2.

Test system: Maize borers
Assay: Test of insecticidal activity against maize borers (leaf immersion)
Conditions: read-out: Mortalities (%) Maize borers
I would appreciate it if you labelled entries MET when mortality at 600 mg/kg is 20% or higher, otherwise NOT MET.

1) CC1=NNC(=O)N(NS(=O)(=O)c2cccs2)C1    NOT MET
2) CC1=NNC(=O)N(NS(=O)(=O)c2ccc3c(c2)CCO3)C1    NOT MET
3) CC1=NNC(=O)N(NS(=O)(=O)c2ccc(Cl)cc2)C1    MET
4) CC1=NNC(=O)N(NS(=O)(=O)c2c(C)cc(C)cc2C)C1    MET
5) CCS(=O)(=O)NN1CC(C)=NNC1=O    NOT MET
6) CCCCS(=O)(=O)N(N1CC(C)=NNC1=O)S(=O)(=O)CCCC    NOT MET
